Ref: patent US20220193039A1

Test system: influenza virus A/PR/8
Assay text: microbe, parasite or virus in culture
Assay type: cell-based
Study conditions: unidentified influenza virus, MDCK, 72 h, read-out: EC50 influenza virus A/PR/8 (PR8-MDCK)
Measurement label: EC50 (nM)

1. CCn1c(CO)nn(-c2cc(O[C@@H](C)C(F)(F)F)c(C(=O)Nc3c(F)cccc3Cl)cc2F)c1=O [BAY 2402234] | 10

###

Test system: CA16
Assay text: Anti-enterovirus activity, CA16-RD
Type: cell-based
Study conditions: RD cells
Measurement label: EC50

1. CCn1c(CO)nn(-c2cc(O[C@@H](C)C(F)(F)F)c(C(=O)Nc3c(F)cccc3Cl)cc2F)c1=O | > 100 µM
